ASSAYED TARGET: T1, recombinant human regenerating islet-derived protein 1α (REG1A) (human, UniProt P05451 23-166, limits assumed)
T1 construct: also called recombinant human REG1A; recombinant REG1A
T1 sequence (looked up): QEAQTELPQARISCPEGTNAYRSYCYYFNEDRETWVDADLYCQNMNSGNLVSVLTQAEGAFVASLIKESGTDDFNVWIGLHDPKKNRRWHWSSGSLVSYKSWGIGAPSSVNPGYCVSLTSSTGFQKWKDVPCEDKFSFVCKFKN
ASSAY INFO: sandwich ELISA; capture 11D11B11; REG1A 33.33 ng/mL
ATTRIBUTE MEASURED: OD value (OD)
One number for each entry, in OD.

Any idea what OD value was measured for antibody 4H8F1 (antibody, V domains shown, Mouse monoclonal from hybridoma, stated mouse IgG1/Kappa; also called 4H8F1-biotin; Antibody 1) VH: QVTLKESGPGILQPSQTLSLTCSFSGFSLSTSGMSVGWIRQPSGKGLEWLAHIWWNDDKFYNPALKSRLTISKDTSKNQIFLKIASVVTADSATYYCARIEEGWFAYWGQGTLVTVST VL: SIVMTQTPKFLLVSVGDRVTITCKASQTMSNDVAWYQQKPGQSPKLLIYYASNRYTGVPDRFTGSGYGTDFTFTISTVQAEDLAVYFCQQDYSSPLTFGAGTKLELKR ?
4.48
